# protocol_conditions: in 2-butoxyethanol, 323.15 K
measurement_label: solubility (mole fraction)
One number for each entry.

solubility (mole fraction) reading for "CCS(=O)(=O)CCn1c([N+](=O)[O-])cnc1C" : 0.0133

====

# protocol_conditions: in acetone, 308.15 K
measurement_label: solubility (mole fraction)
Answers are plain numbers.

solubility (mole fraction) reading for "CCS(=O)(=O)CCn1c([N+](=O)[O-])cnc1C" : 0.028

====

# protocol_conditions: in DMF, 323.15 K
measurement_label: solubility (mole fraction)
One number for each entry.

solubility (mole fraction) reading for "CCS(=O)(=O)CCn1c([N+](=O)[O-])cnc1C" : 0.152

====

# protocol_conditions: in ethanol, 298.15 K
measurement_label: solubility (mole fraction)
One number for each entry.

solubility (mole fraction) reading for "CCS(=O)(=O)CCn1c([N+](=O)[O-])cnc1C" : 0.000836

====

# protocol_conditions: in DMAc, 288.15 K
measurement_label: solubility (mole fraction)
Answers are plain numbers.

solubility (mole fraction) reading for "CCS(=O)(=O)CCn1c([N+](=O)[O-])cnc1C" : 0.0655

====

# protocol_conditions: in DMAc, 323.15 K
measurement_label: solubility (mole fraction)
Give bare numbers.

solubility (mole fraction) reading for "CCS(=O)(=O)CCn1c([N+](=O)[O-])cnc1C" : 0.154

====

# protocol_conditions: in methanol, 298.15 K
measurement_label: solubility (mole fraction)
Answers are plain numbers.

solubility (mole fraction) reading for "CCS(=O)(=O)CCn1c([N+](=O)[O-])cnc1C" : 0.00263

====

# protocol_conditions: in 2-propoxyethanol, 288.15 K
measurement_label: solubility (mole fraction)
Give bare numbers.

solubility (mole fraction) reading for "CCS(=O)(=O)CCn1c([N+](=O)[O-])cnc1C" : 0.00329

====

# protocol_conditions: in 2-butoxyethanol, 293.15 K
measurement_label: solubility (mole fraction)
Give bare numbers.

solubility (mole fraction) reading for "CCS(=O)(=O)CCn1c([N+](=O)[O-])cnc1C" : 0.00372

====

# protocol_conditions: in DMF, 318.15 K
measurement_label: solubility (mole fraction)
Give bare numbers.

solubility (mole fraction) reading for "CCS(=O)(=O)CCn1c([N+](=O)[O-])cnc1C" : 0.134

====

# protocol_conditions: in 2-ethoxyethanol, 303.15 K
measurement_label: solubility (mole fraction)

solubility (mole fraction) reading for "CCS(=O)(=O)CCn1c([N+](=O)[O-])cnc1C" : 0.00957

====

# protocol_conditions: in ethyl acetate, 298.15 K
measurement_label: solubility (mole fraction)
One number for each entry.

solubility (mole fraction) reading for "CCS(=O)(=O)CCn1c([N+](=O)[O-])cnc1C" : 0.00689

====

# protocol_conditions: in n-butyl acetate, 323.15 K
measurement_label: solubility (mole fraction)
One number for each entry.

solubility (mole fraction) reading for "CCS(=O)(=O)CCn1c([N+](=O)[O-])cnc1C" : 0.0107

====

# protocol_conditions: in n-butyl acetate, 313.15 K
measurement_label: solubility (mole fraction)
One number for each entry.

solubility (mole fraction) reading for "CCS(=O)(=O)CCn1c([N+](=O)[O-])cnc1C" : 0.0074

====

# protocol_conditions: in 2-propoxyethanol, 293.15 K
measurement_label: solubility (mole fraction)
One number for each entry.

solubility (mole fraction) reading for "CCS(=O)(=O)CCn1c([N+](=O)[O-])cnc1C" : 0.00429

====

# protocol_conditions: in n-butyl acetate, 318.15 K
measurement_label: solubility (mole fraction)
One number for each entry.

solubility (mole fraction) reading for "CCS(=O)(=O)CCn1c([N+](=O)[O-])cnc1C" : 0.00898

====

# protocol_conditions: in ethyl acetate, 313.15 K
measurement_label: solubility (mole fraction)
Numbers only.

solubility (mole fraction) reading for "CCS(=O)(=O)CCn1c([N+](=O)[O-])cnc1C" : 0.0118

====

# protocol_conditions: in n-butyl acetate, 288.15 K
measurement_label: solubility (mole fraction)
Give bare numbers.

solubility (mole fraction) reading for "CCS(=O)(=O)CCn1c([N+](=O)[O-])cnc1C" : 0.0029

====

# protocol_conditions: in ethanol, 323.15 K
measurement_label: solubility (mole fraction)

solubility (mole fraction) reading for "CCS(=O)(=O)CCn1c([N+](=O)[O-])cnc1C" : 0.00377

====

# protocol_conditions: in 2-propoxyethanol, 313.15 K
measurement_label: solubility (mole fraction)
Numbers only.

solubility (mole fraction) reading for "CCS(=O)(=O)CCn1c([N+](=O)[O-])cnc1C" : 0.00967

====

# protocol_conditions: in n-butyl acetate, 283.15 K
measurement_label: solubility (mole fraction)
One number for each entry.

solubility (mole fraction) reading for "CCS(=O)(=O)CCn1c([N+](=O)[O-])cnc1C" : 0.00235

====

# protocol_conditions: in DMAc, 293.15 K
measurement_label: solubility (mole fraction)
Give bare numbers.

solubility (mole fraction) reading for "CCS(=O)(=O)CCn1c([N+](=O)[O-])cnc1C" : 0.0745

====

# protocol_conditions: in n-propyl acetate, 313.15 K
measurement_label: solubility (mole fraction)
Give bare numbers.

solubility (mole fraction) reading for "CCS(=O)(=O)CCn1c([N+](=O)[O-])cnc1C" : 0.00948

====

# protocol_conditions: in methyl acetate, 308.15 K
measurement_label: solubility (mole fraction)

solubility (mole fraction) reading for "CCS(=O)(=O)CCn1c([N+](=O)[O-])cnc1C" : 0.0159

====

# protocol_conditions: in 2-ethoxyethanol, 323.15 K
measurement_label: solubility (mole fraction)
Give bare numbers.

solubility (mole fraction) reading for "CCS(=O)(=O)CCn1c([N+](=O)[O-])cnc1C" : 0.0222

====

# protocol_conditions: in ethyl acetate, 308.15 K
measurement_label: solubility (mole fraction)
Give bare numbers.

solubility (mole fraction) reading for "CCS(=O)(=O)CCn1c([N+](=O)[O-])cnc1C" : 0.0099

====

# protocol_conditions: in DMAc, 283.15 K
measurement_label: solubility (mole fraction)
One number for each entry.

solubility (mole fraction) reading for "CCS(=O)(=O)CCn1c([N+](=O)[O-])cnc1C" : 0.0571

====

# protocol_conditions: in DMAc, 298.15 K
measurement_label: solubility (mole fraction)
Give bare numbers.

solubility (mole fraction) reading for "CCS(=O)(=O)CCn1c([N+](=O)[O-])cnc1C" : 0.083

====

# protocol_conditions: in methanol, 308.15 K
measurement_label: solubility (mole fraction)

solubility (mole fraction) reading for "CCS(=O)(=O)CCn1c([N+](=O)[O-])cnc1C" : 0.00448

====

# protocol_conditions: in n-propyl acetate, 298.15 K
measurement_label: solubility (mole fraction)
Give bare numbers.

solubility (mole fraction) reading for "CCS(=O)(=O)CCn1c([N+](=O)[O-])cnc1C" : 0.00543

====

# protocol_conditions: in 2-butoxyethanol, 298.15 K
measurement_label: solubility (mole fraction)

solubility (mole fraction) reading for "CCS(=O)(=O)CCn1c([N+](=O)[O-])cnc1C" : 0.00446

====

# protocol_conditions: in n-propyl acetate, 278.15 K
measurement_label: solubility (mole fraction)
One number for each entry.

solubility (mole fraction) reading for "CCS(=O)(=O)CCn1c([N+](=O)[O-])cnc1C" : 0.00255

====

# protocol_conditions: in ethanol, 318.15 K
measurement_label: solubility (mole fraction)
Give bare numbers.

solubility (mole fraction) reading for "CCS(=O)(=O)CCn1c([N+](=O)[O-])cnc1C" : 0.00277

====

# protocol_conditions: in DMF, 293.15 K
measurement_label: solubility (mole fraction)
Numbers only.

solubility (mole fraction) reading for "CCS(=O)(=O)CCn1c([N+](=O)[O-])cnc1C" : 0.0691

====

# protocol_conditions: in DMF, 308.15 K
measurement_label: solubility (mole fraction)
Give bare numbers.

solubility (mole fraction) reading for "CCS(=O)(=O)CCn1c([N+](=O)[O-])cnc1C" : 0.104

====

# protocol_conditions: in acetone, 293.15 K
measurement_label: solubility (mole fraction)
One number for each entry.

solubility (mole fraction) reading for "CCS(=O)(=O)CCn1c([N+](=O)[O-])cnc1C" : 0.0161

====

# protocol_conditions: in 2-ethoxyethanol, 288.15 K
measurement_label: solubility (mole fraction)
One number for each entry.

solubility (mole fraction) reading for "CCS(=O)(=O)CCn1c([N+](=O)[O-])cnc1C" : 0.00526

====

# protocol_conditions: in 2-butoxyethanol, 283.15 K
measurement_label: solubility (mole fraction)
Numbers only.

solubility (mole fraction) reading for "CCS(=O)(=O)CCn1c([N+](=O)[O-])cnc1C" : 0.00214

====

# protocol_conditions: in DMAc, 313.15 K
measurement_label: solubility (mole fraction)
Numbers only.

solubility (mole fraction) reading for "CCS(=O)(=O)CCn1c([N+](=O)[O-])cnc1C" : 0.121

====

# protocol_conditions: in 2-butoxyethanol, 313.15 K
measurement_label: solubility (mole fraction)
Answers are plain numbers.

solubility (mole fraction) reading for "CCS(=O)(=O)CCn1c([N+](=O)[O-])cnc1C" : 0.00826

====

# protocol_conditions: in methanol, 288.15 K
measurement_label: solubility (mole fraction)
Give bare numbers.

solubility (mole fraction) reading for "CCS(=O)(=O)CCn1c([N+](=O)[O-])cnc1C" : 0.00157
